All figures here come from patent US8575158B2.

molecular target: hCRTH2 receptor (Homo sapiens, UniProt Q9Y5Y4); construct: expressed in transfected cells; host or cells: HEK293; assay: Radioligand displacement assay (3H-PGD2) on hCRTH2 receptor membranes; type: binding; conditions: antagonistic activity; 3H-PGD2 displacement on HEK293-hCRTH2 membrane fragments
OUTCOME_MEASURE: IC50 (nM)

// below: answered compounds
# COMPOUND, IC50 [nM]
records = [
    ("Cc1ccccc1CCC(=O)N1CCc2ccccc2C1c1cc(F)ccc1OCC(=O)O (racemic) [Example 134]", 31),
    ("O=C(O)COc1ccc(F)cc1C1c2cccc(S(=O)(=O)c3ccccc3)c2CCN1C(=O)OCc1ccccc1 (racemic) [Example 187]", 241),
    ("O=C(O)COc1ccc(Cl)cc1C1c2ccccc2CCN1C(=O)COc1ccccc1-c1ccccc1 (racemic) [Example 86]", 422),
    ("N#Cc1ccc(OCC(=O)O)c(C2c3cccc(F)c3CCN2C(=O)OCc2ccccc2)c1 (racemic) [Example 19]", 9.38),
    ("CN(C)S(=O)(=O)c1ccc(OCC(=O)O)c(C2c3ccccc3CCN2C(=O)OCc2ccccc2)c1 (racemic) [Example 17]", 889),
]

(a) O=C(O)COc1ccc(F)cc1C1c2ccccc2CCN1C(=O)Cc1cccc2ccccc12 (racemic) [Example 47]
(b) O=C(O)COc1ccc(Cl)cc1C1c2ccccc2CCN1C(=O)C1=Cc2ccccc2OC1 (racemic) [Example 69]
## Task Thinking about recorded IC50 values, which is higher, a or b ? Answer = label.
## Result b
(b: 377 nM, a: 198 nM)

* * *

target: hCRTH2 receptor (Homo sapiens); construct: expressed in transfected cells; host or cells: HEK293; experiment: Radioligand displacement assay (3H-PGD2) on hCRTH2 receptor membranes; format: binding; conditions: antagonistic activity; 3H-PGD2 displacement on HEK293-hCRTH2 membrane fragments
OUTCOME_MEASURE: IC50 (µM)

Here's what some known entries look like.
# MOLECULE, TARGET, IC50 (µM)
records = [
    ("Cc1ccccc1COC(=O)N1CCc2ccccc2C1c1cc(Cl)ccc1OCC(=O)O (racemic)", "hCRTH2 receptor (Homo sapiens)", 0.00562),
    ("O=C(O)COc1ccc(Cl)cc1C1c2ccccc2CCN1C(=O)[C@@H]1C[C@H]1c1ccccc1Cl (relative stereo)", "hCRTH2 receptor (Homo sapiens)", 0.0048),
    ("O=C(O)COc1ccc(Cl)cc1C1c2ccccc2CCN1C(=O)OCc1cccc(Cl)c1Cl (racemic)", "hCRTH2 receptor (Homo sapiens)", 0.00107),
    ("O=C(O)COc1ccc(F)cc1C1c2ccccc2CCN1C(=O)OCCc1ccccc1Cl (racemic)", "hCRTH2 receptor (Homo sapiens)", 0.0275),
    ("O=C(O)COc1ccc(Cl)cc1C1c2ccccc2CCN1C(=O)CCCc1cccc(Cl)c1 (racemic)", "hCRTH2 receptor (Homo sapiens)", 0.0234),
]

(A) O=C(O)COc1ccc(Cl)cc1C1c2cccc(F)c2CCN1C(=O)OCCc1ccccc1Cl (racemic)
(B) O=C(O)COc1ccc(Cl)cc1C1c2ccccc2CCN1C(=O)CSc1cnnn1-c1ccccc1 (racemic)
## Task Sorting ascending by IC50, which comes first: A or B ? Write down the label attached to your selection.
## Result A

* * *

Molecular target: hCRTH2 receptor (Homo sapiens, UniProt Q9Y5Y4)
Construct: expressed in transfected cells; host or cells: HEK293
Sequence (Q9Y5Y4 1-395): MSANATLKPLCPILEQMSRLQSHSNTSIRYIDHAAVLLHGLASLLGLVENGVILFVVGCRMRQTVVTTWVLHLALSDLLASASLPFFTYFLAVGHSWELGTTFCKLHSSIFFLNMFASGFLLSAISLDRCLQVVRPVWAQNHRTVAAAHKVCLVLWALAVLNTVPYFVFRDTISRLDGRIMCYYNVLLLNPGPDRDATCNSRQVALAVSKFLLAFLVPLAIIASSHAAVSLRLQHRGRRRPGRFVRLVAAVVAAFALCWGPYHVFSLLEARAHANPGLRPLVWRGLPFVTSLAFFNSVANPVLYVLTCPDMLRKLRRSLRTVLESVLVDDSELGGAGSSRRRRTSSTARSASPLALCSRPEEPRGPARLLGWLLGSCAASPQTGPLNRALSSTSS
Experiment: Radioligand displacement assay (3H-PGD2) on hCRTH2 receptor membranes
Assay type: binding
Settings: antagonistic activity, 3H-PGD2 radioligand displacement, HEK293-hCRTH2 membranes
OUTCOME_MEASURE: IC50 (nM)

# MOLECULE, TARGET, ENDPOINT_UNIT, IC50
rows = [
    ("O=C(O)COc1ccc(Cl)cc1[C@@H]1c2ccc(F)c(F)c2CCN1C(=O)OCc1cccc(F)c1", "hCRTH2 receptor (Homo sapiens, UniProt Q9Y5Y4)", "nM", 3.38),
    ("Cn1cc(CCC(=O)N2CCc3cc(F)ccc3C2c2cc(Cl)ccc2OCC(=O)O)c2ccccc21 (racemic)", "hCRTH2 receptor (Homo sapiens, UniProt Q9Y5Y4)", "nM", 33.3),
    ("COc1cccc2c1ccn2CCC(=O)N1CCc2ccccc2C1c1cc(Cl)ccc1OCC(=O)O (racemic)", "hCRTH2 receptor (Homo sapiens, UniProt Q9Y5Y4)", "nM", 20.7),
    ("Cc1nn(CCC(=O)N2Cc3ccccc3C2c2cc(Cl)ccc2OCC(=O)O)c2cccc(F)c12 (single isomer, unassigned) [Example 528]", "hCRTH2 receptor (Homo sapiens, UniProt Q9Y5Y4)", "nM", 33.2),
    ("O=C(O)COc1ccc(Cl)cc1C1c2ccccc2CCN1C(=O)COc1cc(Cl)nc(Cl)c1 (racemic)", "hCRTH2 receptor (Homo sapiens, UniProt Q9Y5Y4)", "nM", 650),
]

(1) Cc1csc(=O)n1CCC(=O)N1CCc2ccccc2C1c1cc(Cl)ccc1OCC(=O)O (racemic)
(2) O=C(O)COc1ccc(Cl)cc1C1c2ccccc2CCN1C(=O)CCn1ccc2cccc(Cl)c21 (racemic)
(3) O=C(O)COc1ccc(Cl)cc1[C@@H]1c2ccc(F)cc2CCN1C(=O)CCn1ncc2c(F)cccc21
(4) O=C(O)COc1ccc(Cl)cc1C1c2ccccc2CN1C(=O)CCn1ncc2c(Cl)cccc21 (stereo not drawn)
(5) Cc1nn(CCC(=O)N2Cc3ccccc3C2c2cc(Cl)ccc2OCC(=O)O)c2ccccc12 (single isomer, unassigned) [Example 545]
## Task Sort low-to-high on IC50, please. Write the labels, ordered according to the request.
## Result 2, 3, 4, 1, 5

(A) Cc1nn(CCC(=O)N2CCc3cc(F)ccc3[C@H]2c2cc(Cl)ccc2OCC(=O)O)c2ccccc12
(B) O=C(O)COc1ccc(Cl)cc1C1c2ccccc2CCN1C(=O)NCc1cccc(F)c1 (racemic)
(C) O=C(O)COc1ccc(Cl)cc1C1c2ccccc2CN1C(=O)COCc1ccccc1Cl (racemic)
## Task Hi! Can you put these in order of IC50, lowest number first? Dear reader, please state the labels in the requested order.
## Result C, B, A
(C: 9.11 nM, B: 19.8 nM, A: 32.1 nM)

(1) O=C(O)COc1ccc(Cl)cc1C1c2ccccc2CCN1C(=O)COc1cccc2cccnc12 (racemic)
(2) O=C(O)COc1ccc(Cl)cc1C1c2ccccc2CN1C(=O)NCc1cccc(F)c1 (racemic)
## Task Of the two listed items, 1 and 2 , which carries the larger IC50 figure? Choose, then provide that item's label.
## Result 1
(1: 25.7 nM, 2: 17.4 nM)

* * *

target: hCRTH2 receptor (Homo sapiens, UniProt Q9Y5Y4); construct: expressed in transfected cells; host or cells: HEK293; test: Radioligand displacement assay (3H-PGD2) on hCRTH2 receptor membranes; assay type: binding; conditions: antagonistic activity; 3H-PGD2 displacement on HEK293-hCRTH2 membrane fragments
OUTCOME_MEASURE: IC50 (µM)

# COMPOUND, ENDPOINT_UNIT, IC50
rows = [
    ("COCCOC(=O)N1CCc2ccccc2C1c1cc(Cl)ccc1OCC(=O)O (racemic) [Example 267]", "µM", 0.0212),
    ("O=C(O)COc1ccc(Cl)cc1C1c2ccccc2CCN1C(=O)OCc1ccccc1Cl (racemic) [Example 164]", "µM", 0.00094),
    ("C[C@@H](Oc1ccc(C#N)cc1C1c2ccccc2CCN1C(=O)OCc1ccccc1)C(=O)O (stereo partly shown) [Example 13]", "µM", 0.011),
    ("Cc1cc(COC(=O)N2CCc3ccccc3C2c2cc(Cl)ccc2OCC(=O)O)no1 (racemic) [Example 270]", "µM", 0.00831),
    ("CN(CC(=O)N1CCc2ccccc2C1c1cc(F)ccc1OCC(=O)O)S(=O)(=O)c1ccccc1 (racemic) [Example 210]", "µM", 0.423),
]

(a) O=C(O)COc1ccc(F)cc1C1c2ccccc2CCN1C(=O)OCc1ccccc1 (racemic) [Example 1]
(b) CC(C)(C)COC(=O)N1CCc2ccccc2C1c1cc(F)ccc1OCC(=O)O (racemic) [Example 166]
(c) COCCOC(=O)N1CCc2ccccc2C1c1cc(F)ccc1OCC(=O)O (racemic) [Example 172]
(d) CN(CC(=O)N1CCc2ccccc2C1c1cc(F)ccc1OCC(=O)O)S(=O)(=O)c1cccc(F)c1 (racemic) [Example 211]
(e) O=C(O)COc1ccc(F)cc1C1c2ccccc2CCN1C(=O)NCc1ccccc1Cl (racemic) [Example 203]
## Task Hi! Can you put these in order of IC50, lowest number first? The reply should contain the labels ordered as requested.
## Result a, e, c, b, d
(a: 0.0076 µM, e: 0.0279 µM, c: 0.0598 µM, b: 0.12 µM, d: 0.261 µM)

(a) COc1cc2c(cc1OC)C(c1cc(F)ccc1OCC(=O)O)N(C(=O)OCc1ccccc1)CC2 (racemic) [Example 36]
(b) O=C(O)COc1ccc(Cl)cc1C1c2ccccc2CCN1C(=O)CCOc1cccc(Cl)c1 (racemic) [Example 95]
(c) O=C(O)COc1ccc(Cl)cc1C1c2ccccc2CCN1C(=O)OCc1cc(Cl)ccc1F (racemic) [Example 259]
(d) O=C(O)COc1ccc(-n2nccn2)cc1C1c2ccccc2CCN1C(=O)OCc1ccccc1 (racemic) [Example 224]
(e) O=C(O)COc1ccc(F)cc1C1c2ccc(F)c(F)c2CCN1C(=O)OCc1ccccc1 (racemic) [Example 14]
## Task Ranking field: IC50; order: falling. Answer by listing the labels in the order asked for.
## Result a, b, e, d, c
(a: 0.0571 µM, b: 0.0275 µM, e: 0.0188 µM, d: 0.0127 µM, c: 0.00529 µM)

(A) CCCCOC(=O)N1CCc2ccccc2C1c1cc(Cl)ccc1OCC(=O)O (racemic) [Example 266]
(B) O=C(O)COc1ccc(F)cc1C1c2ccccc2CCN1C(=O)Cn1ccc2ccccc21 (racemic) [Example 61]
## Task Kindly identify which of A and B has the larger recorded IC50 value. // caller expects the label of the chosen entry
## Result B
(B: 0.846 µM, A: 0.0245 µM)

(I) Cc1cccc(-n2cncc2CCC(=O)N2CCc3ccccc3C2c2cc(Cl)ccc2OCC(=O)O)c1C (racemic) [Example 85]
(II) O=C(O)COc1ccc(Cl)cc1C1c2ccccc2CCN1C(=O)OCc1cc(Cl)ccc1Cl (racemic) [Example 253]
## Task Just curious, which one has the larger IC50 reading, I or II ? Pick one; state its label.
## Result I
(I: 0.0189 µM, II: 0.00652 µM)
